# target.under.test: T1, TIAM2, Q8IVF5
# T1 sequence (Q8IVF5 885-986, limits assumed, looked up): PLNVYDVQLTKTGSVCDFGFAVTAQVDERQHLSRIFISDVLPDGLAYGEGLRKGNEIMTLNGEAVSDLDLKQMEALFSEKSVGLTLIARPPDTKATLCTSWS
# protocol.text: holdup assay
# Parameters: key: below the threshold = too weak to quantify, mostly under pKd 3.1 to 4
# setup.conditions: plain residues with an end cap or a label only (N-terminal biotin on a linker: ado-ado)
Mark 1.0 for reported pKd of 4 or greater; mark 0.0 for anything smaller.

## Task Is it the case that SFISKKEWYV [NECTIN1, Q15223] has pKd reaching or exceeding 4?
## Result 1.0

## Task Is it the case that SLNANEVEWF [RNF130, Q86XS8] has pKd reaching or exceeding 4?
## Result 1.0

## Task Is it the case that SVTSERETNI [SLC16A7, O60669] has pKd reaching or exceeding 4?
## Result 0.0

## Task Is it the case that QLSFNTDTLC [ABCA2, Q9BZC7] has pKd reaching or exceeding 4?
## Result 1.0
